- target.of.assay: NAMPT (human, recombinant, C-terminally His-tagged) (Homo sapiens, UniProt P43490)
- Sequence (P43490 whole entry): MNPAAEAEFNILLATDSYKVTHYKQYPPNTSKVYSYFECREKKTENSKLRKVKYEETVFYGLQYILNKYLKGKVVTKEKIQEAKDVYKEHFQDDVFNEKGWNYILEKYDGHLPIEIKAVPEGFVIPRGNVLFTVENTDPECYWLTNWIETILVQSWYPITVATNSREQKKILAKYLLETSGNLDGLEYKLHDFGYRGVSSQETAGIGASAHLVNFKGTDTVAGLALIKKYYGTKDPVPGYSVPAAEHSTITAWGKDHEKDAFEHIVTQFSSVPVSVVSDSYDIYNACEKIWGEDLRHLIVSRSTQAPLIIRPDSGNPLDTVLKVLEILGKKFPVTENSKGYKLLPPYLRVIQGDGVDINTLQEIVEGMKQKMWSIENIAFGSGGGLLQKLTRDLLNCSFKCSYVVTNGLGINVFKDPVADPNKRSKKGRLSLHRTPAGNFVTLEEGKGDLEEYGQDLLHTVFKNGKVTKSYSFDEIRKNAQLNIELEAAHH
- assay.procedure: Time-Resolved Fluorescence Resonance Energy Transfer (TR-FRET) Binding Assay of NAMPT
- particulars: without substrates; 6.8 nM NAMPT, 200 nM probe, 3 hours equilibration
- Description: Determination of the utility of compounds having Formula (I) as binders to and inhibitors of NAMPT was performed using Time-Resolved Fluorescence Resonance Energy Transfer (TR-FRET) binding assays. Time-Resolved Fluorescence Resonance Energy Transfer (TR-FRET) Binding Assay of NAMPT […]
metric.name: IC50 (nM)

[[record]]
compound = "O=C(NCCCCC1CCN(C(=O)CC2CC2)CC1)Nc1ccc2nccn2c1 [Example 64]"
metric_name = "IC50"
value_unit = "nM"
result_number = 518


[A] O=C(NCc1ccn2ccnc2c1)c1ccc(C2CN(C(=O)c3ccccc3F)C2)cc1 [Example 638]
[B] O=C(NCc1ccn2ccnc2c1)c1ccc(C2CN(C(=O)c3cscn3)C2)cc1 [Example 637]
# input Kindly identify which of A and B has the larger recorded IC50 value. // output: label of the selected item
# output B

[P] O=C(NCc1ccn2ccnc2c1)c1ccc(C2CCN(C(=O)c3ccco3)CC2)cc1 [Example 484]
[Q] CC(C)CCNC(=O)c1ccc(C(=O)NCc2ccc3nccn3c2)cc1 [Example 358]
# input // pick min by IC50: P , Q // output: label of the selected item
# output P
(P: 79.5 nM, Q: 1840 nM)

[A] O=C(NCc1ccc2nccn2c1)c1ccc(C2=CCN(C(=O)CC3CCCC3)CC2)cc1 [Example 97]
[B] CC1(C(=O)N2CCC(c3ccc(C(=O)NCc4cn5ccnc5cn4)cc3)CC2)CC1 [Example 814]
[C] O=C(NCc1ccn2ccnc2c1)c1ccc(C2CCN(C(=O)C3CCCC3)C2)cc1 (stereo not shown) [Example 583]
[D] CS(=O)(=O)N1CCC(c2ccc(C(=O)NCc3ccn4ccnc4c3)cc2)C1 (stereo not shown) [Example 624]
# input Rank the items in ascending order with respect to IC50. Note for the reader: the ranking is given by listing the labels in the order requested.
# output B, A, D, C
(B: 68.7 nM, A: 109 nM, D: 261 nM, C: 1120 nM)

[1] CCS(=O)(=O)N1CCC(c2ccc(C(=O)NCc3ccn4ccnc4c3)cc2)C1 (stereo not shown) [Example 625]
[2] CC(C)C(=O)N1CCC(c2ccc(C(=O)NCc3ccn4ccnc4c3)cc2)CC1 [Example 239]
[3] O=C(NCc1ccn2ccnc2c1)c1ccc(C2CCN(C(=O)c3ccco3)C2)s1 (stereo not shown) [Example 783]
# input Reorder: IC50, max to min. Note for the reader: the ranking is given by listing the labels in the order requested.
# output 1, 2, 3
(1: 795 nM, 2: 308 nM, 3: 64.4 nM)

[a] O=C(NCc1ccn2ccnc2c1)c1ccc(C2CCN(C(=O)c3ccccc3)C2)s1 (stereo not shown) [Example 542]
[b] CC(C)OCC(=O)N1CC=C(c2ccc(C(=O)NCc3ccc4nccn4c3)cc2)CC1 [Example 98]
[c] O=C(NCc1ccn2ccnc2c1)Nc1ccc(O[C@@H]2CCN(C(=O)c3ccc(F)cc3F)C2)cc1 [Example 692]
[d] O=C(NCc1ccn2ccnc2c1)c1ccc(C2CN(C(=O)CC3CCCCC3)C2)cc1 [Example 657]
[e] CC(C)Cn1cc(-c2ccc(C(=O)NCc3cn4ccnc4cn3)s2)cn1 [Example 754]
# input Rank the items in ascending order with respect to IC50. Note for the reader: the ranking is given by listing the labels in the order requested.
# output e, a, c, b, d
(e: 4.92 nM, a: 35.1 nM, c: 83.9 nM, b: 120 nM, d: 232 nM)

[A] CC(C)OCCNC(=O)c1ccc(NC(=O)Nc2ccc3nccn3c2)cc1 [Example 12]
[B] CCCCC(=O)NC1(c2ccc(C(=O)NCc3ccn4ccnc4c3)s2)COC1 [Example 327]
[C] Cn1nccc1C(=O)N1CCC(c2ccc(C(=O)NCc3ccn4ccnc4c3)s2)C1 (stereo not shown) [Example 799]
# input Rank the items in ascending order with respect to IC50. Note for the reader: the ranking is given by listing the labels in the order requested.
# output C, A, B

[A] O=C(NCc1ccn2ccnc2c1)c1ccc(C2CCN(C(=O)C3COCCO3)CC2)cc1 (stereo not shown) [Example 233]
[B] O=C(NCc1ccc2nccn2c1)c1cnc(N2C(=O)OCC2C2CCOC2)s1 (stereo not shown) [Example 116]
[C] O=C(NCc1ccn2ccnc2c1)Nc1ccc(NS(=O)(=O)c2ccccc2-c2ccccc2)cc1 [Example 303]
[D] O=C(NCc1ccn2ccnc2c1)c1ccc(C2CCN(C(=O)C3CC3)CC2)cc1 [Example 531]
[E] COCC(=O)N1CCC(c2ccc(C(=O)NCc3ccn4ccnc4c3)s2)CC1 [Example 257]
# input Rank the items in ascending order with respect to IC50. Note for the reader: the ranking is given by listing the labels in the order requested.
# output C, E, D, A, B

[I] O=C(NCc1ccn2ccnc2c1)Nc1ccc(C2CCN(C(=O)[C@@H]3CCCO3)C2)cc1 (stereo partly shown) [Example 387]
[II] CC1(C(=O)N2CCC(c3ccc(C(=O)NCc4ccn5ccnc5c4)s3)C2)COC1 (stereo not shown) [Example 767]
# input // pick min by IC50: I , II // output: label of the selected item
# output II
(II: 265 nM, I: 419 nM)
